Data origin, for the record: paper PMC9482650

STUDY TARGET: FRMPD4, Q14CM0
Sequence (Q14CM0 67-160): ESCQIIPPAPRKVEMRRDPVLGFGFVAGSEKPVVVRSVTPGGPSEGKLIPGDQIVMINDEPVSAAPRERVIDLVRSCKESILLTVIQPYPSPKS
PROTOCOL SUMMARY: holdup assay
Parameters: key: below the threshold = too weak to quantify, mostly under pKd 3.1 to 4
CONDITION CONTEXT: plain residues with an end cap or a label only (N-terminal biotin on a linker: ado-ado)
PROPERTY LABEL: pKd

• THHRKIHTRV [ZNF599, Q96NL3] = below the threshold
• SSSVNVSSNL [CXCR1, P25024] = 3.57
• GNDPDRGTSI [GRID2, O43424] = below the threshold
• NSTHNLKDYV [CLDN20, P56880] = below the threshold
• SRPHTNETSL [MCC, P23508] = 4.49
• HLSTRQGTCV [ATRNL1, Q5VV63] = 3.51
• PKSNSSKEYV [CLDN7, O95471] = below the threshold
• PLPPEEESWV [GAS2L2, Q8NHY3] = 3.55
• GDSSRKEYFI [GYPC, P04921] = below the threshold
• QKASRNESTF [POLR1D, P0DPB6] = below the threshold
• LVEEEEPMNL [HDAC7, Q8WUI4] = 3.86
• YAEKRMLTEV [KCNA6, P17658] = below the threshold
• VYEVPVETKF [SLC26A3, P40879] = 3.65
• FVFESRKEIL [TBPL1, P62380] = below the threshold
• SKQFDKNAYV [CLDN10, P78369] = 3.59
• IKLETKKTKL [SLC15A2, Q16348] = below the threshold
• PAALPESTHM [SLC9A3, P48764] = below the threshold
• ELKAEDEVQI [DCHS2, Q6V1P9] = below the threshold
• SGDGKTSVWI [GJC1, P36383] = below the threshold
• HDDYFYHDEL [RCN2, Q14257] = 3.94
• QQGLLPHSSC [TYRO3, Q06418] = below the threshold
